Assay: Cytotoxicity against TNFalpha-stimulated HUVEC assessed as cell viability at 10 uM pretreated for 16 hrs before TNFalpha challenge measured after 6 hrs by MTT assay (reference value: 103.8 +/- 6.1%)
Assay type: cell-based
Settings: human, TNFalpha-stimulated HUVEC cells; read-out: Activity
QUANTITY_MEASURED: viability at 6 h, 10 µM (%)
Give the number; % is assumed, so skip it.

The compound C=C1CC[C@@H]2[C@](C)(CO)[C@H](O)CC[C@@]2(C)[C@@H]1C/C=C1/C(=O)OC[C@H]1O [ANDROGRAPHOLIDE] showed viability at 6 h, 10 µM equal to 94.6
